# Tested on: COLO 205
# experiment-notes: NCI tumour cell line growth inhibition, 48 h
The source made the active and inactive calls. No stated cut-off is given here; in the data, active = GI50 up to about 1.1 µM and inactive = higher. Peptide text beside a SMILES is read from it. * marks the point of attachment. Cbz = O=C(OCc1ccccc1)*; CH2Cl = ClC*
Would you mind answering with one of these outcomes? active, inactive

Previously resolved entries follow.
{"columns": ["molecule", "label-class"],
 "data": [
  ["COc1ccc2c(C(=O)O)cc3ccccc3c2c1OC", "inactive"],
  ["O=C1CC(C(O)C(O)C(O)CO)CC(=O)N1 (stereo not given)", "inactive"],
  ["O=C(c1ccc(/N=C/c2ccccc2O)cc1)c1ccc(/N=C/c2ccccc2O)cc1", "inactive"],
  ["C=CC(c1ccccc1)[C@@]1(OC(C)=O)C(=O)C(=O)OC1C1COC(C)(C)O1 (stereo not given in full)", "inactive"],
  ["CC1CCc2c(c(CC3CC(=O)NC(=O)C3)nn2-c2ccccc2)C1 (stereo not given)", "inactive"]
]}

Request: Tell me the recorded outcome of this test for "Cc1nc2c(n1CCC(C)C)C(=O)c1ccccc1C2=O" .
Result: inactive

Request: Please share the test call associated with "O=C(CCc1nnc2s/c(=C\c3ccccc3[N+](=O)[O-])c(=O)n12)Nc1cc(Cl)c(Cl)cc1Cl" .
Result: inactive

Request: Per the assay record, what outcome was assigned to Cc1cc2cc3cc(C)c(N)cc3nc2cc1N [ACRIDINE YELLOW] ?
Result: active

Request: Assay result, entry "COc1ccc2c(CCNC(C)=O)c(C(C)=O)[nH]c2c1" — outcome?
Result: inactive

Request: // outcome(item) with item = "COc1ccc(/C=c2\c(=O)[nH]c3nc4ccccc4c(=O)n23)cc1"
Result: inactive

Request: For CC(C)CC(NC(=O)OCc1ccccc1)C(=O)NC(Cc1ccccc1)C(=O)CCl (stereo not drawn) (Cbz-Leu-Phe-CH2Cl; configuration not given here) , which call appears in the assay record?
Result: inactive

Request: Hey, what did the test say about Cc1cn(C2CC(N=[N+]=[N-])C(COP(=O)(O)OCC3OC(n4cc(F)c(=O)[nH]c4=O)CC3O)O2)c(=O)[nH]c1=O (stereo not given) ?
Result: inactive

Request: Tell me the recorded outcome of this test for CCOC1SC(SC)=NN1C(=O)C(OC(C)=O)C(OC(C)=O)C(OC(C)=O)C(OC(C)=O)C(=O)N1N=C(SC)SC1OCC (stereo not given) .
Result: inactive

----------
# Test system: RXF 393
# experiment-notes: NCI tumour cell line growth inhibition, 48 h
Activity calls are given as the source filed them. Rule as the data show it: active = GI50 up to about 1.1 µM and inactive = higher.
Reported GI50 values follow for various molecules

Request: Which GI50 reading was recorded for the molecule "COC(=O)[C@H](C)NC(=O)[C@H](NS(=O)(=O)c1nc2ccccc2s1)c1ccccc1" ?
Result: 16.9 µM (inactive)

Request: May I ask what GI50 has been recorded for "Nc1ncnc2c1ncn2[C@@H]1O[C@H](COP(=O)(O)OP(=O)(O)OC[C@H]2O[C@@H](OCCCO)[C@H](O)[C@@H]2O)[C@@H](O)[C@H]1O" ?
Result: > 100 µM (inactive)

Request: Using the record for "NC1(C(=O)O)CCCC1" , report its GI50.
Result: > 625 µM (inactive)

Request: Please give the measured GI50 for this molecule: "CCCCN(CCCC)CCCn1cnc2ncccc2c1=O"
Result: > 100 µM (inactive)

Request: Item "O=S(=O)(O)c1ccc2c(/N=N/c3ccc(/N=N/c4ccccc4)cc3)c(O)c(S(=O)(=O)O)cc2c1" has what recorded GI50?
Result: > 100 µM (inactive)

Request: Recorded GI50 of "NS(=O)(=O)c1ccc(NNC(=O)c2cccc3c(=O)c4ccccc4[nH]c23)cc1" , please.
Result: 60.4 µM (inactive)

Request: Which GI50 is reported for this molecule? O=C1OC(C2OC(=O)c3cc(O)c(O)c(O)c3-c3c(O)c(O)c4oc(=O)c5c(c(O)c(O)c6oc(=O)c3c4c65)-c3c(cc(O)c(O)c3O)C(=O)OCC2O)C2OC(=O)c3c(c(O)c(O)c(O)c3[C@H]2O)-c2c1cc(O)c(O)c2O (some centres undefined)
Result: 26.5 µM (inactive)

Request: Can you share its GI50? I mean this molecule: "CCc1nc2cc(/N=N/c3c(O)ccc4ccccc34)ccc2[nH]1"
Result: 12.6 µM (inactive)

Request: Consider the molecule shown here: "Cc1ccc(/C(O)=C/c2nc3ccccc3oc2=O)cc1" What is its recorded GI50?
Result: > 100 µM (inactive)

Request: Given the entry "COc1cc2c(cc1OC)-c1cc3ccccc3c(=O)n1CC2" , report its measured GI50.
Result: 2.33 µM (inactive)

Request: What value of measured GI50 is listed for "C=Cc1ccc(C)[n+](C[Si](C)(C)O[Si](C)(C)C[n+]2cc(C=C)ccc2C)c1" ?
Result: > 100 µM (inactive)

Request: Query: GI50; subject: COc1nc2ccc(CNc3ccc(C(=O)NC(CCC(=O)O)C(=O)O)cc3)cc2nc1OC (centres undefined)
Result: > 100 µM (inactive)

Request: What does the record list as GI50 for CC1C(=O)CCC1C(Sc1ccccc1)(Sc1ccccc1)Sc1ccccc1 (centres undefined) ?
Result: 14.2 µM (inactive)

Request: Look up GI50: "CC/C(Cl)=N\OC(=O)Nc1ccc(F)c([N+](=O)[O-])c1"
Result: 16.7 µM (inactive)

Request: What value of GI50 has been reported for the following molecule? C=CCC1(O)C(=O)OC2C(O)COC21O (centres undefined)
Result: > 100 µM (inactive)
